Provide the recorded Hot plate Licking latency for the entries that follow.
- System: mice
- Format: in vivo
- Condition Summary: antagonist pre-treatment + PS (no acetyl L-carnitine); after treatment 30 min
Form entry: value (s) — number only.

-- ask What value of measured Hot plate Licking latency is listed for CC(N)(Cc1ccc(O)cc1)C(=O)O (stereo not drawn) [Alpha-M-p-T, alpha-methyl-p-tyrosine, reference compound] ?
-- reply 16.1

-- ask Similarly, CCOC(OCC)P(=O)(O)CCCN [CGP 35348, reference compound] ?
-- reply 12.6

-- ask Similarly, C=CCN1CC[C@]23c4c5ccc(O)c4O[C@H]2C(=O)CC[C@@]3(O)[C@H]1C5 [Naloxone, naloxone, reference compound] ?
-- reply 13.1

-- ask Similarly, CN1CCN(CC(=O)N2c3ccccc3C(=O)Nc3cccnc32)CC1 [Pirenzepine, pirenzepine, reference compound] ?
-- reply 14.5
